molecular target: ScHof1; experiment: SPOT peptide array binding signal intensity (averaged, normalized) (arbitrary units (background-subtracted, floor 0; scale differs between SH3 domains)); higher = stronger binding of the SH3 domain to the peptide
PARAMETER: SPOT peptide array binding signal intensity
One number for each entry.

Observe how each entry below is paired with its result.
{"BINDER": "DDEDVPPQLPTRTKS", "EXPERIMENTAL_VALUE": 16.5}
{"BINDER": "SKIRPTPRKPSRMAT", "EXPERIMENTAL_VALUE": 10}
{"BINDER": "PAPPPPPRASRPTPN", "EXPERIMENTAL_VALUE": 56.2}
{"BINDER": "WRPRIVPILPYITRL", "EXPERIMENTAL_VALUE": 365}
{"BINDER": "KTKQQKPAIPQKKSF", "EXPERIMENTAL_VALUE": 7.75}

Your task in this section: give SPOT peptide array binding signal intensity for each listed record.
1. SSAAPPPPPRRATPE
2. GRLRPKRIAPWHLIQ

[7, 0.25]
